All values here come from ChEMBL document CHEMBL1201862.

# GI50 annotations
System: A498
Experiment: NCI tumour cell line growth inhibition, 48 h
Active and inactive are the calls of the source. Cut-off read from the data, not from the text of the source: active = GI50 up to about 1.1 µM and inactive = higher.

{"columns": ["compound", "GI50"],
 "data": [
  ["CC(=O)O[C@H]1[C@@H]2[C@@H]3[C@@H](C[C@H]1C)[C@@H](C)CO[C@@]1(C)CC/C=C(/C)C[C@@H]2O[C@@H]31", "> 100 µM (inactive)"],
  ["Cc1cccc2[s+]snc12", "> 100 µM (inactive)"],
  ["Cc1cc(OC2OC(CO)C(O)C(O)C2O)ccc1O (centres undefined)", "> 100 µM (inactive)"],
  ["COc1nc(C#CCC(C)O)nc(OC)n1 (centres undefined)", "30.5 µM (inactive)"],
  ["N#CC(C#N)=C1NC(=O)C(c2ccccc2)C(=O)N1 (centres undefined)", "> 100 µM (inactive)"],
  ["COC(=O)c1ccccc1Nc1nc(-c2cccs2)nc2cc(OC)c(OC)cc12", "> 100 µM (inactive)"],
  ["CCc1cccc(C(C)C)c1NC(=O)C(=O)C(C(=O)C(=O)OC)c1nc2ccccc2nc1O (centres undefined)", "> 100 µM (inactive)"],
  ["O=S(=O)(O)n1ccnc1", "> 100 µM (inactive)"],
  ["Cn1cc2c3ccccc3nc-2c2ccccc21 [ISOCRYPTOLEPINE]", "1.74 µM (inactive)"]
]}
